System: Bacillus subtilis
measurementNotes: Antimicrobial activity against Bacillus subtilis ATCC 6633 by broth dilution assay
Format: functional
measurementSetup: Bacillus subtilis, ATCC 6633; read-out: MIC
Let's look at some compounds and their measured MIC.
testReadout: MIC

{"compound": "COc1cc(O)c2c(c1)[C@H](O)[C@@H]1[C@H](C[C@@H](O)[C@@](C)(O)[C@@H]1O)C2=O [ALTERSOLANOL L]", "value": "> 10 µM"}
{"compound": "COc1cc(O)c2c(c1)C(=O)C1=C(C[C@@H](O)[C@@](C)(O)C1)C2=O [ALTERSOLANOL B]", "value": "7.8 µM"}
{"compound": "COc1cc(O)c2c(c1)C(=O)C1=C(C2=O)[C@H](O)[C@@H](O)[C@@](C)(O)[C@@H]1O [ALTERSOLANOL A]", "value": "4.1 µM"}
{"compound": "COc1cc(O)c2c(c1)C(=O)c1cc(C)c(O)c(-c3c(OC)cc4c(c3O)C(=O)c3cc(O)c(C)cc3C4=O)c1C2=O [ALTERPORRIOL Q]", "value": "> 10 µM"}
{"compound": "COc1cc(O)c2c(c1)C(=O)c1cc(C)c(O)cc1C2=O [MACROSPORIN]", "value": "> 10 µM"}
{"compound": "COc1cc2c(c(O)c1-c1c(OC)cc(O)c3c1C(=O)C1=C(C[C@@H](O)[C@@](C)(O)[C@@H]1O)C3=O)C(=O)C1=C(C[C@](C)(O)[C@H](O)C1)C2=O", "value": "> 10 µM"}
{"compound": "COc1cc(O)c2c(c1)C(=O)c1cc(C)c(O)c(-c3c(O)c(C)cc4c3C(=O)c3c(O)cc(OC)cc3C4=O)c1C2=O", "value": "> 10 µM"}
{"compound": "COc1cc(O)c2c(c1)[C@H](O)[C@@H]1[C@@H](C2=O)[C@H](O)[C@@H](O)[C@@](C)(O)[C@@H]1O [AMPELANOL]", "value": "> 10 µM"}
{"compound": "COc1cc(O)c2c(c1)[C@H](O)[C@@H]1C(=C[C@@H](O)[C@@](C)(O)[C@@H]1O)C2=O", "value": "> 10 µM"}
{"compound": "COc1cc(O)c2c(c1)C(=O)[C@@]13O[C@]1(C2=O)[C@H](O)[C@@H](O)[C@@](C)(O)[C@@H]3O", "value": "> 10 µM"}
{"compound": "COc1cc(O)c2c(c1)C(=O)C1=C(C[C@@H](O)[C@@](C)(O)[C@@H]1O)C2=O [ALTERSOLANOL C]", "value": "8.8 µM"}
{"compound": "COc1cc(O)c2c(c1)C(=O)c1cc(C)c(O)c(-c3c(OC)cc4c(c3O)C(=O)C3=C(C4=O)[C@@H](O)[C@](C)(O)[C@H](O)[C@H]3O)c1C2=O (single isomer, unassigned; atropisomer 1) [ALTERPORRIOL C]", "value": "> 10 µM"}
{"compound": "O=C(O)c1cn(C2CC2)c2cc(N3CCNCC3)c(F)cc2c1=O [CIPROFLOXACIN]", "value": "0.6 µM"}
{"compound": "COc1cc2c(c(O)c1-c1c(OC)cc(O)c3c1C(=O)C1=C(C[C@@H](O)[C@@](C)(O)C1)C3=O)C(=O)C1=C(C[C@](C)(O)[C@H](O)C1)C2=O", "value": "> 10 µM"}
{"compound": "COc1cc(O)c2c(c1)[C@H](O)[C@H]1C[C@](C)(O)[C@H](O)C[C@@H]1C2=O [TETRAHYDROALTERSOLANOL B]", "value": "> 10 µM"}
{"compound": "COc1cc(O)c2c(c1)C(=O)c1cc(C)c(O)c(-c3c(OC)cc(O)c4c3C(=O)C3=C(C[C@@H](O)[C@@](C)(O)[C@@H]3O)C4=O)c1C2=O", "value": "> 10 µM"}
{"compound": "COc1cc(O)c2c(c1)C(=O)C1=C(C[C@@H](OC(C)=O)[C@@](C)(O)C1)C2=O", "value": "3.9 µM"}
{"compound": "COc1cc(O)c2c(c1-c1c(OC)cc(O)c3c1C(=O)c1cc(C)c(O)cc1C3=O)C(=O)C1=C(C2=O)[C@H](O)[C@@H](O)[C@@](C)(O)[C@@H]1O (single isomer, unassigned; atropisomer 1) [ALTERPORRIOL A/B]", "value": "> 10 µM"}
{"compound": "COc1cc(O)c2c(c1-c1c(OC)cc(O)c3c1C(=O)C1=C(C[C@@H](O)[C@@](C)(O)[C@@H]1O)C3=O)C(=O)C1=C(C[C@@H](O)[C@@](C)(O)[C@@H]1O)C2=O", "value": "> 10 µM"}
{"compound": "COc1cc(O)c2c(c1)C(=O)c1cc(C)c(O)c(-c3c(OC)cc(O)c4c3C(=O)c3cc(C)c(O)cc3C4=O)c1C2=O (single isomer, unassigned; atropisomer 2)", "value": "> 10 µM"}
{"compound": "COc1cc(O)c2c(c1)[C@H](O)[C@@H]1[C@H](C[C@@H](OC(C)=O)[C@@](C)(O)[C@@H]1O)C2=O", "value": "> 10 µM"}
{"compound": "COc1cc(O)c2c(c1-c1c(OC)cc(O)c3c1C(=O)C1=C(C3=O)[C@@H](O)[C@H](O)[C@](C)(O)[C@H]1O)C(=O)C1=C(C2=O)[C@H](O)[C@@H](O)[C@@](C)(O)[C@@H]1O (atropisomer, axis not shown)", "value": "> 10 µM"}
{"compound": "COc1cc(O)c2c(c1)C(=O)c1cc(C)c(OS(=O)(=O)O)cc1C2=O", "value": "> 10 µM"}
